Assay: in vivo
Assay type: in vivo, mice
Conditions: male, CD-1, mouse, plasma, ip, 10 mg/kg, mice, IP 10 mg/kg, plasma, 60 min, mean of 3; read-out: Plasma concentration C (mean)
RECORDED ENDPOINT: concentration at 60 min (ng/mL)
Return type: number; implicit unit ng/mL.

Request: Look at this compound and give its reported concentration at 60 min. CCc1nc2c(C)nc(C)cc2n1-c1ccc(CCNC(=O)NS(=O)(=O)c2ccc(C)cc2)cc1 [Grapiprant, reference compound]
Response: 393

###

Assay: in vivo
Format: in vivo, mice
Conditions: male, CD-1, mouse, plasma, iv, 10 mg/kg, mice, IV 10 mg/kg, plasma, 60 min; read-out: Plasma concentration C (mean)
RECORDED ENDPOINT: concentration at 60 min
Write the numeric value and append its unit.

Request: Look at this molecule and give its reported concentration at 60 min. O=C([O-])C1CCC2(CC1)CC(Nc1ncnc3[nH]c4c(F)cccc4c13)C2.[Na+] (stereo not shown) [Compound 77]
Response: 10500 ng/mL
